Target: Human HER3, endogenous, on human cancer cell lines (human, UniProt P21860 20-1342)
Test: cell-based or functional assay
OBSERVABLE: MCF7 pHER3 % inhibition (%)
The reply should be a number in %, with the unit left off.

Q. Quick one: give measured MCF7 pHER3 % inhibition for MOR10703 (antibody, human IgG1, kappa, V domains shown, tested as IgG) VH: EVQLLESGGGLVQPGGSLRLSCAASGFTFSSYAMSWVRQAPGKGLEWVSAINSQGKSTYYADSVKGRFTISRDNSKNTLYLQMNSLRAEDTAVYYCARWGDEGFDIWGQGTLVTVSS VL: DIQMTQSPSSLSASVGDRVTITCRASQGISNWLAWYQQKPGKAPKLLIYGASSLQSGVPSRFSGSGSGTDFTLTISSLQPEDFATYYCQQYSSFPTTFGQGTKVEIKR
A. 80
